protocol.details: DUSP6 inhibitors restoring Erk phosphorylation by chemical complementation, primary imaging in DUSP6-transfected HeLa (AID 609)
condition.summary: HeLa MKP-3 transfected, phospho-Erk imaging KS statistic; measured here: cell density z-score; at 10 µM; cells stimulated with TPA for 15 min
Catalogue of z-score readings, one per entry.
Lab note: jot down the number only; don't add units.

Cc1cc(C)n(C(=O)CNC(=O)C2COc3ccccc3O2)n1 (stereo unspecified) : 0.273
COc1ccc(CNC(=O)[C@H](C)NC(=O)C2CCN(S(=O)(=O)c3ccc(C)cc3)CC2)cc1 : -1.17
CC(=O)N1CC=C2C(C#N)=C(N)C(C#N)(C#N)[C@H](c3ccoc3)[C@H]2C1 : 0.865
Cc1ccc2[nH]c(CCN(C)C)c(CC#N)c2c1 : -1.01
CCOC(=O)C(C#N)C(Cc1ccccc1)c1ccco1 (stereo unspecified) : 1.19

Any idea what its z-score is? The molecule is "CCOC(=O)c1c(C)n(C)c2ccc(OC)c(NC(=O)CN3CCN(Cc4ccccc4)CC3)c12" -0.908

Suppose we examine the molecule "Fc1ccc2[nH]c3c(N4CCN(c5ccccc5)CC4)ncnc3c2c1" ; what z-score value has been reported? -1.72

Fill in: z-score of "CNS(=O)(=O)c1cccc2nsnc12" is ___ -1.23

Which z-score value is on record for "Oc1ccc(C=Nc2ccc3ncccc3c2)c(O)c1" ? 1.18

# query: z-score of entry "COc1ccc(CN2CCC(=O)NC2=O)cc1" 0.756

For "Cn1c(=O)c2c(nc(NCc3ccc4c(c3)OCO4)n2Cc2ccccc2F)n(C)c1=O" , what is its reported z-score? -0.011

====

Listed here are compounds together with their documented NADPH fluorescence slope.
test.system: Voltage-gated potassium channel subunit beta-2 (Rattus norvegicus)
protocol.details: KvBeta positive modulators, primary screen, biochemical, NADPH fluorescence (AID 623);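 note: fluorescence intensity change per second fitted from 20 to 320 s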
condition.summary: Recombinant KvBeta, NADPH fluorescence decrease slope, 10 min; at 10 µM; stronger effect = lower value
Keep the answer to the number alone.

Solved entries (count: 5):
C[C@]12CC[C@@H]3c4ccc(OS(=O)(=O)O)cc4CC[C@H]3[C@@H]1CCC2=O : -4.6e-05
Cc1ccc(C(=O)C2=C(O)C(=O)N(c3ncccn3)C2c2cccc(Cl)c2)o1 (stereo unspecified) : -2.1e-05
O=C(CCCN1C(=O)c2ccccc2C1=O)N1CCC(c2ccccc2)C1 (stereo unspecified) : -7.2e-05
Cn1c(N2CCOCC2)nc2c1c(=O)n(Cc1ccc(Cl)c(Cl)c1)c(=O)n2C : -0.000203
N#Cc1nc(COc2ccc(Br)cc2)oc1N1CCCC1 : -7e-05

Param readout= NADPH fluorescence slope; system= Voltage-gated potassium channel subunit beta-2 (Rattus norvegicus); entry= CCC1(C)Cc2c(C#N)c(N)sc(=S)c2CO1 (stereo unspecified) ; returns value. -2.4e-05

====

protocol.details: inhibitors of TNFa-induced NFkB p65 translocation, primary screen, imaging, HUVEC, MLSMR starter and 10KST1 sets (AID 438);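 note: compound added about 3h40 before a 20 min TNFalpha stimulation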
condition.summary: HUVEC TNFa-induced p65 nuclear translocation; measured here: nuclei count (cytotoxicity indicator), at 2.08 µM
Would you mind sorting the entries by cell count according to these classes? zone 1 (below 500), zone 2 (500 to below 600), zone 3 (600 or more)

// below: answered compounds
Cc1nc(SCC(=O)c2ccccc2)c(C#N)c(-c2ccco2)c1C(=O)NCc1ccco1 : zone 1
Nc1nc(NC(=O)Cc2ccccc2)nn1-c1ccccc1 : zone 1
Cc1nnc2n(-c3ccccc3)c(=O)c3c4c(sc3n12)COC(C(C)C)C4 (stereo not drawn) : zone 2
COC1=CC(=O)CC(C)C12Oc1c(Cl)c(OC)cc(OC)c1C2=O (stereo not drawn) : zone 2
Cn1c(NCC(O)c2ccccc2)nc2c1c(=O)n(Cc1ccc(Cl)c(Cl)c1)c(=O)n2C (stereo not drawn) : zone 3
CN1c2ccccc2-c2nc3ccccc3n2C1c1ccco1 (stereo not drawn) : zone 1
CCCCNC(=O)C(C#N)c1nc2ccccc2nc1N1CCN(Cc2ccc3c(c2)OCO3)CC1 (stereo not drawn) : zone 2
C=CCOc1nc2c(c(=O)n(C)c(=O)n2C)n1Cc1ccc(Cl)cc1 : zone 3
COc1ccccc1OCC(O)COC(N)=O (stereo not drawn) : zone 3
O=C1C2ON(c3ccccc3)C(c3ccncc3)C2C(=O)N1c1ccc(Br)cc1 (stereo not drawn) : zone 1

Hi there! Could you help me figure out the category for CCOC(=O)C1=C(c2ccccc2)NC(SCC(=O)Nc2ccccc2C)=C(C#N)C1c1ccco1 (stereo not drawn) please? zone 1

Lab log: CCCCCCSC1=C(C#N)C(c2ccccc2)CC(=O)N1 (stereo not drawn) — assign cell count category zone 1

Which category does the recorded cell count put CC1(C)NC(=O)N(CC(O)COc2ccccc2C(=O)Nc2ccccc2)C1=O (stereo not drawn) in? zone 1

Category of O=C1CC(NCc2ccc3c(c2)OCO3)C(=O)N1Cc1ccc2c(c1)OCO2 (stereo not drawn) , please. zone 2
